Origin of values: ChEMBL document CHEMBL5150071

- method.description: Selectivity index, ratio of IC50 for bovine brain PDE1 to IC50 for full length human PDE9A

compound: CCCC1CNCc2c1[nH]c(=O)c(C#N)c2N1CCC2(CC2)C(F)(F)C1 (racemic)
Ratio IC50: 9
--
compound: Cc1ccc(-c2c3c([nH]c(=O)c2C#N)C(C)CCC3)cc1 (racemic)
Ratio IC50: 3
--
compound: CCCC1CNCc2c1[nH]c(=O)c(C#N)c2N1CCC2(CC1)CC2(F)F (racemic)
Ratio IC50: 30
--
compound: CCCC1CNCc2c1[nH]c(=O)c(C#N)c2N1CCC2(CC1)CC2 (stereo in doubt; form 2)
Ratio IC50: 49
--
compound: CCCC1CNCc2c1[nH]c(=O)c(C#N)c2N1CCC2(CCOC2)CC1 (racemic)
Ratio IC50: 12

###

- Species on record: Homo sapiens
- method.description: Selectivity index, ratio of IC50 for human platelet PDE5A to IC50 for full length human PDE9A
# maps each entry to its Ratio IC50

compound: CCCC1CCCc2c1[nH]c(=O)c(C#N)c2-c1ccc(C)cc1 (centres undefined)
inequality.symbol: =
Ratio IC50: 69

compound: CCCC1CNCc2c1[nH]c(=O)c(C#N)c2-c1ccc(C)cc1.Cl (centres undefined)
inequality.symbol: >
Ratio IC50: 100

compound: CCCC1CNCc2c1[nH]c(=O)c(C#N)c2N1CCC(C)(C)CC1.Cl (centres undefined)
inequality.symbol: >
Ratio IC50: 100

compound: CCCC1CNCc2c1[nH]c(=O)c(C#N)c2N1CCC2(CC1)CC2 (stereo in doubt; form 2)
inequality.symbol: =
Ratio IC50: 143

###

- target.of.assay: High affinity cGMP-specific 3',5'-cyclic phosphodiesterase 9A (Homo sapiens, UniProt O76083)
- Sequence (O76083 whole entry): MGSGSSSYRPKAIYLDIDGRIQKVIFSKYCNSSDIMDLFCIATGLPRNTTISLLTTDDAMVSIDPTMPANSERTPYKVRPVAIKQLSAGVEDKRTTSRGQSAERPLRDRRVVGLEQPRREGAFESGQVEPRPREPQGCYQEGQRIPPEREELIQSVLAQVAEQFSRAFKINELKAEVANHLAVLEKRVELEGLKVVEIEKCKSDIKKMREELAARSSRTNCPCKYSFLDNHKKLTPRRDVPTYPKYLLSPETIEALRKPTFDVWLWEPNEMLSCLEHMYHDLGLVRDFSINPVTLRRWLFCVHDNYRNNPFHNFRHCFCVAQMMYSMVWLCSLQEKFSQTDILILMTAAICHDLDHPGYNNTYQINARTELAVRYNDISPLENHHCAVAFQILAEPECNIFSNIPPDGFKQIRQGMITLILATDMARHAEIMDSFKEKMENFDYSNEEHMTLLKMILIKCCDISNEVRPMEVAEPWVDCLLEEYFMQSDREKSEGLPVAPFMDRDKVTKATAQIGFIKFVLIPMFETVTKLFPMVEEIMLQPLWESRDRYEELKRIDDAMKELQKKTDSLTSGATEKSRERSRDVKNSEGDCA
Define the label as Met when IC50 is strictly less than 200 nM and as Not met in all remaining cases.

compound: CCCCC1CCCc2c1[nH]c(=O)c(C#N)c2-c1ccc(C)cc1 (racemic)
label: Met
--
compound: Cc1ccc(-c2c3c([nH]c(=O)c2C#N)C(C)CCC3)cc1 (racemic)
label: Not met
--
compound: CCCC1CCCc2c(-c3ccc(C)cc3)nc(=O)[nH]c21 (racemic)
label: Not met
--
compound: CC1(C)CCN(c2c(C#N)c(=O)[nH]c3cccnc23)CC1
label: Not met
--
compound: CCCC1CNCc2c1[nH]c(=O)c(C#N)c2N1CCC2(CC1)CC2.Cl (stereo in doubt; form 2)
label: Met
--
compound: Cc1ccc(-c2c(C#N)c(=O)[nH]c3cccnc23)cc1
label: Not met
--
compound: CCCC1CNCc2c1[nH]c(=O)c(C#N)c2N1CCC2(CCOC2)CC1 (racemic)
label: Met
--
compound: CCc1ccnc2c(N3CCC(C)(C)CC3)c(C#N)c(=O)[nH]c12
label: Not met
--
compound: CCCC1CNCc2c1[nH]c(=O)c(C#N)c2N1CCC2(CC1)CC2 (stereo in doubt; form 1)
label: Not met
--
compound: CCCC1CNCc2c1[nH]c(=O)c(C#N)c2N1CCC2(CC2)C(F)(F)C1 (racemic)
label: Met

###

- method.description: Oral bioavailability in Wistar rat at 1 mg/kg measured over 24 hrs by LC-MS/MS analysis
- Type: ADME, organism-based
- condition.context: Wistar, in vivo

mol.smiles: C[C@@H]1CN(Cc2ncccn2)C[C@H]1c1nc2c(cnn2C2CCOCC2)c(=O)[nH]1
unit.text: %
bioavailability: 41
